Data provenance: the METLIN SMRT retention time set (Domingo-Almenara et al. 2019)

Experiment: gradient 5% acetonitrile 3 min, to 50% in 2 min, to 85% in 15 min, held 3 min, 100 µL/min
Details: column: Zorbax Extend-C18 2.1 x 50 mm; eluents: water / acetonitrile, 0.1% formic acid
RP-LC retention time listing for selected compounds.
Give the value in s but do not write s after it.

compound	parameterMeasured	result
CCNc1nc(C)cc(N2CCN(C(=O)Nc3ccccc3)CC2)n1	RP-LC retention time	636
CN(C)c1ccc2c(c1)OC(N)=C(C#N)C2c1cccc(C(F)(F)F)c1 (centres undefined)	RP-LC retention time	1020
CCOC(=O)c1cccc(NC(=O)c2c(OCC)cc(=O)n3c2CCCC3)c1	RP-LC retention time	772
Cc1ccn2c(NC(=O)c3cccc(F)c3)c(-c3ccccc3)nc2c1	RP-LC retention time	670
COc1cccc(CNC(=O)C2(C)CCCN(C(=O)Nc3ccc(C)cc3)C2)c1 (centres undefined)	RP-LC retention time	898

QUERY: I have this compound here, O=C(Cn1c(=O)c2cccn2c2ccc(F)cc21)NCc1cccs1 , and I need its recorded RP-LC retention time.
RESULT: 785

QUERY: Fill in: RP-LC retention time of O=c1cc(-c2cc3c(ccc4ccccc43)oc2=O)c2ccc(O)cc2o1 is ___
RESULT: 875

QUERY: Give its RP-LC retention time value. Item: COCCN1CCC(N2CCN(S(=O)(=O)c3cccc(Br)c3)CC2)C1=O (centres undefined)
RESULT: 612

QUERY: Fill blank: measured RP-LC retention time of the compound COc1ccc(Cl)cc1NC(=O)c1c(OC)cc(=O)n2c1CCCC2 is ____.
RESULT: 801

QUERY: RP-LC retention time for O=C(Nc1nnc(C2CC(=O)N(c3ccc(F)cc3)C2)o1)c1ccccc1F (centres undefined) ?
RESULT: 701

QUERY: I would be grateful if you could share the reported RP-LC retention time for CCc1noc2nc(C)n(CC(=O)NCc3ccccc3C)c(=O)c12 .
RESULT: 782

QUERY: I would be grateful if you could share the reported RP-LC retention time for CN(C(=O)CC(=O)Nc1ccc2nc3n(c(=O)c2c1)CCCCC3)c1cccc(C(F)(F)F)c1 .
RESULT: 771

QUERY: Value lookup for RP-LC retention time; key = Cc1c(S(=O)(=O)NCc2cccs2)c(C)n(C)c1-c1nnc(C2CCC2)o1
RESULT: 893

QUERY: Endpoint output: RP-LC retention time of COc1ccc(-c2cc(=O)n(CC(=O)Nc3cccc4nsnc34)cn2)cc1 . Value?
RESULT: 748

QUERY: Given the compound COc1ccccc1N1CCN(c2cc(SCC(=O)Nc3ccc(F)c(Cl)c3)ncn2)CC1 , what is its reported RP-LC retention time?
RESULT: 1090

QUERY: Param item = CCc1ccc(S(=O)(=O)N2CCN(c3cc(C)nc(NC4CCCCC4)n3)CC2)cc1 ; retrieve measured RP-LC retention time.
RESULT: 876

QUERY: Give the measured RP-LC retention time of CCn1nccc1-c1cccc(-c2noc(-c3cc(Cl)ccc3F)n2)c1 .
RESULT: 1300

QUERY: Please report the recorded RP-LC retention time for COCCc1noc([C@@H]2CN(Cc3cccc4[nH]ccc34)C[C@H]2CO)n1 .
RESULT: 554

QUERY: For the compound O=S(=O)(c1ccc(C(F)(F)F)cc1)N1CC(c2nc(-c3ccncc3)no2)C1 , what RP-LC retention time is on record?
RESULT: 888
